Assay: Biodistribution in AR42J tumor-bearing nude mice
Conditions: mouse, in vivo, Biodistribution Adrenals, Competition, 60 min p.i., coinjection of 20 μg/mouse unlabeled TOC, n = 3
test-readout: tissue uptake at 1 h (%ID/g)
Number only, in %ID/g; omit the unit.

Given C[C@@H](O)[C@H](NC(=O)[C@@H]1CSSC[C@H](NC(=O)[C@@H](Cc2ccccc2)NC(=O)CN2CCN(CC(=O)O)CCN(CC(=O)O)CCN(CC(=O)O)CC2)C(=O)N[C@@H](Cc2ccc(O)cc2)C(=O)N[C@H](Cc2c[nH]c3ccccc23)C(=O)N[C@@H](CCCCN)C(=O)N[C@@H]([C@@H](C)O)C(=O)N1)C(=O)O [[^68Ga]DOTATATE, [^68Ga]DOTA-Tyr^3-octreotate, metal not drawn] , respond with its tissue uptake at 1 h. 0.4

---

Test: Biodistribution in AR42J tumor-bearing nude mice
Details: mouse, in vivo, Biodistribution Heart, Competition, 60 min p.i., coinjection of 20 μg/mouse unlabeled TOC, n = 3
test-readout: tissue uptake at 1 h (%ID/g)
Just the number in %ID/g, nothing appended.

Tell us which tissue uptake at 1 h value is on record for C[C@@H](O)[C@H](NC(=O)[C@@H]1CSSC[C@H](NC(=O)[C@@H](Cc2ccccc2)NC(=O)CN2CCN(CC(=O)O)CCN(CC(=O)O)CCN(CC(=O)O)CC2)C(=O)N[C@@H](Cc2ccc(O)cc2)C(=O)N[C@H](Cc2c[nH]c3ccccc23)C(=O)N[C@@H](CCCCN)C(=O)N[C@@H]([C@@H](C)O)C(=O)N1)C(=O)O [[^68Ga]DOTATATE, [^68Ga]DOTA-Tyr^3-octreotate, metal not drawn] 0.2

---

Test: Biodistribution in AR42J tumor-bearing nude mice
Details: mouse, lung, iv, 25 pmol/mouse, Biodistribution Lung, Control, 60 min p.i., tracer only, n = 5
test-readout: tissue uptake at 1 h

Kindly indicate its recorded tissue uptake at 1 h. Item: C[C@@H](O)[C@H](NC(=O)[C@@H]1CSSC[C@H](NC(=O)[C@@H](Cc2ccccc2)NC(=O)CN2CCN(CC(=O)O)CCN(CC(=O)O)CCN(CC(=O)O)CC2)C(=O)N[C@@H](Cc2ccc(O)c(I)c2)C(=O)N[C@H](Cc2c[nH]c3ccccc23)C(=O)N[C@@H](CCCCN)C(=O)N[C@@H]([C@@H](C)O)C(=O)N1)C(=O)O [[^68Ga]HA-DOTATATE, [^68Ga]DOTA-3-iodo-Tyr^3-octreotate, metal not drawn] 13.2 %ID/g

---

Assay: Biodistribution in AR42J tumor-bearing nude mice
Settings: mouse, liver, iv, 25 pmol/mouse, Biodistribution Liver, Control, 60 min p.i., tracer only, n = 5
test-readout: tissue uptake at 1 h (%ID/g)
Note: unit %ID/g is implicit; provide only the numeric part.

Output measured tissue uptake at 1 h for this item: C[C@@H](O)[C@H](NC(=O)[C@@H]1CSSC[C@H](NC(=O)[C@@H](Cc2ccccc2)NC(=O)CN2CCN(CC(=O)O)CCN(CC(=O)O)CCN(CC(=O)O)CC2)C(=O)N[C@@H](Cc2ccc(O)c(I)c2)C(=O)N[C@H](Cc2c[nH]c3ccccc23)C(=O)N[C@@H](CCCCN)C(=O)N[C@@H]([C@@H](C)O)C(=O)N1)C(=O)O [[^68Ga]HA-DOTATATE, [^68Ga]DOTA-3-iodo-Tyr^3-octreotate, metal not drawn] 1

---

Test: Biodistribution in AR42J tumor-bearing nude mice
Conditions: mouse, in vivo, Biodistribution Liver, Competition, 60 min p.i., coinjection of 20 μg/mouse unlabeled TOC, n = 3
test-readout: tissue uptake at 1 h (%ID/g)
Value expressed in %ID/g; do not type the unit.

Consider the molecule C[C@@H](O)[C@H](NC(=O)[C@@H]1CSSC[C@H](NC(=O)[C@@H](Cc2ccccc2)NC(=O)CN2CCN(CC(=O)O)CCN(CC(=O)O)CCN(CC(=O)O)CC2)C(=O)N[C@@H](Cc2ccc(O)cc2)C(=O)N[C@H](Cc2c[nH]c3ccccc23)C(=O)N[C@@H](CCCCN)C(=O)N[C@@H]([C@@H](C)O)C(=O)N1)C(=O)O [[^68Ga]DOTATATE, [^68Ga]DOTA-Tyr^3-octreotate, metal not drawn] and give its recorded tissue uptake at 1 h. 0.2

---

Assay: Biodistribution in AR42J tumor-bearing nude mice
Details: mouse, muscle, iv, 25 pmol/mouse, Biodistribution Muscle, Control, 60 min p.i., tracer only, n = 5
test-readout: tissue uptake at 1 h

Supply recorded tissue uptake at 1 h for C[C@@H](O)[C@H](NC(=O)[C@@H]1CSSC[C@H](NC(=O)[C@@H](Cc2ccccc2)NC(=O)CN2CCN(CC(=O)O)CCN(CC(=O)O)CCN(CC(=O)O)CC2)C(=O)N[C@@H](Cc2ccc(O)c(I)c2)C(=O)N[C@H](Cc2c[nH]c3ccccc23)C(=O)N[C@@H](CCCCN)C(=O)N[C@@H]([C@@H](C)O)C(=O)N1)C(=O)O [[^68Ga]HA-DOTATATE, [^68Ga]DOTA-3-iodo-Tyr^3-octreotate, metal not drawn] here. 0.2 %ID/g

---

Test: Biodistribution in AR42J tumor-bearing nude mice
Conditions: mouse, AR42J tumor, intravenous, Biodistribution AR42J tumor, Competition, 60 min p.i., coinjection of 20 μg/mouse unlabeled TOC, n = 3
test-readout: tissue uptake at 1 h (%ID/g)
Value expressed in %ID/g; do not type the unit.

Quote tissue uptake at 1 h reported for C[C@@H](O)[C@H](NC(=O)[C@@H]1CSSC[C@H](NC(=O)[C@@H](Cc2ccccc2)NC(=O)CN2CCN(CC(=O)O)CCN(CC(=O)O)CCN(CC(=O)O)CC2)C(=O)N[C@@H](Cc2ccc(O)c(I)c2)C(=O)N[C@H](Cc2c[nH]c3ccccc23)C(=O)N[C@@H](CCCCN)C(=O)N[C@@H]([C@@H](C)O)C(=O)N1)C(=O)O [[^68Ga]HA-DOTATATE, [^68Ga]DOTA-3-iodo-Tyr^3-octreotate, metal not drawn] please. 5.6

---

Test: Biodistribution in AR42J tumor-bearing nude mice
Conditions: mouse, spleen, iv, 25 pmol/mouse, Biodistribution Spleen, Control, 60 min p.i., tracer only, n = 5
test-readout: tissue uptake at 1 h
Answer with the number, then the unit.

Please report tissue uptake at 1 h for the following compound: C[C@@H](O)[C@H](NC(=O)[C@@H]1CSSC[C@H](NC(=O)[C@@H](Cc2ccccc2)NC(=O)CN2CCN(CC(=O)O)CCN(CC(=O)O)CCN(CC(=O)O)CC2)C(=O)N[C@@H](Cc2ccc(O)c(I)c2)C(=O)N[C@H](Cc2c[nH]c3ccccc23)C(=O)N[C@@H](CCCCN)C(=O)N[C@@H]([C@@H](C)O)C(=O)N1)C(=O)O [[^68Ga]HA-DOTATATE, [^68Ga]DOTA-3-iodo-Tyr^3-octreotate, metal not drawn] 1.9 %ID/g

---

Experiment: Biodistribution in AR42J tumor-bearing nude mice
Conditions: mouse, in vivo, Biodistribution Lung, Competition, 60 min p.i., coinjection of 20 μg/mouse unlabeled TOC, n = 3
test-readout: tissue uptake at 1 h (%ID/g)
Use %ID/g as the unit, but write only the number.

Give the value of tissue uptake at 1 h reported for the following: C[C@@H](O)[C@H](NC(=O)[C@@H]1CSSC[C@H](NC(=O)[C@@H](Cc2ccccc2)NC(=O)CN2CCN(CC(=O)O)CCN(CC(=O)O)CCN(CC(=O)O)CC2)C(=O)N[C@@H](Cc2ccc(O)cc2)C(=O)N[C@H](Cc2c[nH]c3ccccc23)C(=O)N[C@@H](CCCCN)C(=O)N[C@@H]([C@@H](C)O)C(=O)N1)C(=O)O [[^68Ga]DOTATATE, [^68Ga]DOTA-Tyr^3-octreotate, metal not drawn] 0.6
